target: recombinant human PAI-1 (Homo sapiens, UniProt P05121); construct: purchased Molecular Innovations, Inc; test: Test Example 1: human PAI-1 inhibitory activity (tPA fluorogenic substrate, pH 7.5 Tris buffer); format: biochemical; details: Compound Concentration 5 μM; Tris buffer
Sequence (P05121 24-402): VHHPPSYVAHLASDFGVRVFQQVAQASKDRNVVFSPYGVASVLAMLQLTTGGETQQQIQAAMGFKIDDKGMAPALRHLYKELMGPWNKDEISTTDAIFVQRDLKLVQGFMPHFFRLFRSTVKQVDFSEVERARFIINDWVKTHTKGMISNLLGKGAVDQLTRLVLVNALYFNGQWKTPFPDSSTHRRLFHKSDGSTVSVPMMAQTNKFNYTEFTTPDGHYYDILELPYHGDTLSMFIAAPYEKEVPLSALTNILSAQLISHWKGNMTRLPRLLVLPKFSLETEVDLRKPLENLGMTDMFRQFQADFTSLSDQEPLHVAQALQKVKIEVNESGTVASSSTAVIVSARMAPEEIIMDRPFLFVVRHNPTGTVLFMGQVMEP
QUANTITY_KIND: Inhibition Rate of PAI-1 Activity (%)

INSERT INTO measurements (structure_string, measured_number) VALUES
  ('Cc1ccc(COc2ccc(-c3ccc(OC(F)(F)F)cc3)cc2CCC(=O)O)cc1', 21),
  ('CC(C)(C)c1ccc(Oc2cc(-c3ccc(OC(F)(F)F)cc3)ccc2/C=C/C(=O)O)cc1', 39),
  ('CC(C)(C)Oc1ccc(N(CCCCc2ccccc2)C(=O)C(=O)O)cc1-c1ccc(OC(F)(F)F)cc1', 68),
  ('CC(C)(OCc1ccc(-c2ccc(OC(F)(F)F)cc2)cc1Oc1ccc(C(C)(C)C)cc1)C(=O)O', 55);

----------
molecular target: recombinant human PAI-1 (Homo sapiens, UniProt P05121); construct: purchased Molecular Innovations, Inc; assay: Test Example 2: human PAI-1 inhibitory activity (tPA fluorogenic substrate, pH 7.4 HEPES buffer); format: biochemical; conditions: human PAI-1; compound concentration 1 μM
Recorded Inhibition Rate of PAI-1 Activity (%) values for a group of molecules are listed next.
QUANTITY_KIND: Inhibition Rate of PAI-1 Activity (%)

INSERT INTO results (molecule, unit_of_measurement, measured_number) VALUES
  ('CC(C)(C)c1ccc(Sc2cc(-c3ccc(OC(F)(F)F)cc3)ccc2/C=C\C(=O)O)cc1 [Compound 529]', '%', 94),
  ('CC(C)(C)c1ccc(-c2ccc(/C=C/C(=O)O)c(Oc3ccc(OC(F)(F)F)cc3)c2)cc1 [Compound 478]', '%', 90),
  ('O=C(O)C(=O)N(CCCCc1ccccc1)c1cc(-c2ccc(OC(F)(F)F)cc2)ccc1Oc1ccccc1 [Compound 638]', '%', 57),
  ('CN(CC(=O)O)c1ccc(-c2ccc(OC(F)(F)F)cc2)cc1Oc1ccc(C(C)(C)C)cc1 [Compound 534]', '%', 84),
  ('CC(C)(C)c1ccc(Oc2cc(-c3cc(Cl)ccc3Cl)ccc2/C=C/C(=O)O)cc1 [Compound 483]', '%', 76),
  ('CC(C)(C)c1cccc(Oc2cc(-c3cccc(OC(F)(F)F)c3)ccc2CCC(=O)O)c1 [Compound 515]', '%', 86),
  ('CCCCCOc1ccc(-c2ccc(C(C)C)cc2)cc1N(CCCCc1ccccc1)C(=O)C(=O)O [Compound 678]', '%', 97),
  ('CC(C)c1ccccc1Oc1cc(-c2ccc(OC(F)(F)F)cc2)ccc1/C=C/C(=O)O [Compound 490]', '%', 91);

----------
target: recombinant human PAI-1 (Homo sapiens); construct: purchased Molecular Innovations, Inc; test: Test Example 1: human PAI-1 inhibitory activity (tPA fluorogenic substrate, pH 7.5 Tris buffer); assay type: biochemical; details: Compound Concentration 5 μM; Tris buffer
Readings of Inhibition Rate of PAI-1 Activity (%) for the listed compounds
QUANTITY_KIND: Inhibition Rate of PAI-1 Activity (%)

INSERT INTO assay_data (structure_string, tested_on, result) VALUES
  ('CC(C)(C)c1ccc(Oc2cccc(-c3ccc(OC(F)(F)F)cc3)c2C=CC(=O)O)cc1', 'recombinant human PAI-1 (Homo sapiens)', '51%'),
  ('CC(C)(C)c1ccc(CN(C(=O)C(=O)O)c2ccc(-c3ccc(C(C)(C)C)cc3)cc2)cc1', 'recombinant human PAI-1 (Homo sapiens)', '37%'),
  ('CC(C)(C)c1ccc(CN(C(=O)C(=O)O)c2ccc(Nc3ccc(OC(F)(F)F)cc3)cc2)cc1', 'recombinant human PAI-1 (Homo sapiens)', '42%'),
  ('O=C(O)C(=O)N(CCCc1ccccc1)c1ccc(-c2ccc(OC(F)(F)F)cc2)cc1', 'recombinant human PAI-1 (Homo sapiens)', '29%'),
  ('CC(C)(C)c1ccc(Oc2cc(Oc3ccc(OC(F)(F)F)cc3)ccc2/C=C/C(=O)O)cc1', 'recombinant human PAI-1 (Homo sapiens)', '46%'),
  ('CC(C)(Oc1ccc(-c2ccc(OC(F)(F)F)cc2)cc1Oc1ccc(C(C)(C)C)cc1)C(=O)O', 'recombinant human PAI-1 (Homo sapiens)', '37%'),
  ('O=C(O)CCc1cc(-c2ccc(OC(F)(F)F)cc2)ccc1OCc1ccc(OC(F)(F)F)cc1', 'recombinant human PAI-1 (Homo sapiens)', '29%'),
  ('CSc1ccc(-c2ccc(OCc3ccc(C(C)(C)C)cc3)c(/C=C/C(=O)O)c2)cc1', 'recombinant human PAI-1 (Homo sapiens)', '16%'),
  ('CC(C)(C)c1ccc(CN(C(=O)C(=O)O)c2ccc(N3CCCCC3)c(-c3ccc(OC(F)(F)F)cc3)c2)cc1', 'recombinant human PAI-1 (Homo sapiens)', '86%'),
  ('CC(C)(C)c1ccc(COc2ccc(-c3ccc(OC(F)(F)F)cc3)cc2OCc2nnn[nH]2)cc1', 'recombinant human PAI-1 (Homo sapiens)', '29%'),
  ('CC(C)(C)c1ccc(CN(C(=O)C(=O)O)c2cc(Oc3ccc(OC(F)(F)F)cc3)cc(C(F)(F)F)c2)cc1', 'recombinant human PAI-1 (Homo sapiens)', '66%'),
  ('CC(C)(C)c1ccc(COc2cc(-c3ccc(OC(F)(F)F)cc3)ccc2/C=C/C(=O)O)cc1', 'recombinant human PAI-1 (Homo sapiens)', '25%'),
  ('CC(C)(C)c1ccc(CN(C(=O)C(=O)O)c2ccc(OCc3ccc(OC(F)(F)F)cc3)c(OCc3ccc(OC(F)(F)F)cc3)c2)cc1', 'recombinant human PAI-1 (Homo sapiens)', '44%'),
  ('CCN(CC)c1ccc(N(Cc2ccc(C(C)(C)C)cc2)C(=O)C(=O)O)cc1-c1ccc(OC(F)(F)F)cc1', 'recombinant human PAI-1 (Homo sapiens)', '93%'),
  ('O=C(O)CCc1cc(-c2ccc(OC(F)(F)F)cc2)ccc1OCc1cccc(C(F)(F)F)c1', 'recombinant human PAI-1 (Homo sapiens)', '22%');
